In this section we review reported TGI values for a set of compounds.
system: EKVX NSCLC; assay: NCI tumour cell line growth inhibition, 48 h

Example entries and their recorded answers appear below.
Need TGI, item COc1ncnn2ccc(-c3cnc4nc(C)n(Cc5nnc(C(C)F)o5)c4c3)c12 (centres undefined) > 36.4 µM

// same read-out, input: COc1cc(/C=C2\N=C(c3ccccc3)N(c3ccc4c(c3)Sc3cc(N5C(=O)/C(=C/c6cc(OC)c(OC)c(OC)c6)N=C5c5ccccc5)ccc3N4)C2=O)cc(OC)c1OC 54.6 µM

What about Cc1ccc2[nH]c3c(C)c4cc[n+](C)cc4c(C)c3c2c1 ? 10.3 µM

Try this compound next: Cc1cc(C)c2c(=O)cc(-c3ccc(F)cc3)[nH]c2n1 > 100 µM

What do you get for O=c1cc(CN2CCCCC2)[nH]c2c1ccc1nc(CN3CCCCC3)cc(=O)n12 ? > 100 µM

Again, but for COc1cc2cc(Oc3ccc(NC(=O)Nc4ccc(F)c(C(F)(F)F)c4)cc3)c(C)nc2cc1OCCN1CCOCC1 20.7 µM

Please give the result for COc1cc(S(=O)(=O)Nc2ccc(-c3csc(/N=C\c4ccccc4O)n3)cc2)ccc1Cl too. > 100 µM

Could you do the same for C#CCOCCCC(=O)O , please? > 100 µM

Continue with the next compound.
Consider the compound N[C@@H]1c2c(Br)sc(Br)c2C(=O)[C@H]1Br and give its measured TGI. > 88 µM

====

tested on: ACHN renal; assay: NCI tumour cell line growth inhibition, 48 h
Parameter measured: TGI (µM)
Give the number; µM is assumed, so skip it.

Answered cases to consult:
Which measured TGI value corresponds to O=C([CH-]C(=O)c1ccccc1)c1ccccc1.O=C([CH-]C(=O)c1ccccc1)c1ccccc1.[CH2-]CCC.[CH2-]CCC.[Sn+4] ? 1.6

Repeat with OC1CCC(COC(c2ccccc2)(c2ccccc2)c2ccccc2)O1 (stereo not given) 31.1

Moving on to the next molecule: Cc1ccc(OC2CC(n3cnc4c(=O)[nH]c(Br)nc43)OC2Oc2ccc(C)cc2)cc1 (stereo not given) 38

What do we get for O=C(CSc1nc2ccc([N+](=O)[O-])cc2[nH]1)Nc1ccc([N+](=O)[O-])cc1 ? 8.02

Quick one: Nc1nc(N)c2cc(Sc3ccc(Cl)cc3)ccc2n1 16.4

// repeat for O=C(NC(=S)Nc1ccc(-c2nc3ccccc3[nH]2)cc1)c1ccc2ccccc2c1 and report 4.02

Others:
Look up TGI for this molecule: Oc1c(CCl)cc(Cl)cc1Cc1cc(Cl)cc(Cc2cc(Cl)cc(CCl)c2O)c1O 12.8

Entry Cc1ccc([N+](=O)[O-])cc1S(=O)(=O)Nc1ccc(C(=O)/C=C/c2ccccc2)cc1 please 28

====

tested on: KM12 colon; experiment: NCI tumour cell line growth inhibition, 48 h
Parameter measured: TGI (µM)
The figure you give is taken to be in µM; do not add the unit.

Could you tell me which TGI is on file for Cc1cc(C)c2c(=O)cc(-c3ccccc3)[nH]c2c1 ? 22.1

Also, CC(C)[C@]12O[C@H]1[C@@H]1O[C@]13[C@]1(O[C@H]1C[C@H]1C4=C(CC[C@@]13C)C(=O)OC4)[C@@H]2OC(=O)OC(C)(C)C please. 3.41

What do we get for CC12OC(C(=O)C13CC3)C1C(=O)c3cccc(O)c3C(=O)C12 (stereo not given) ? 38.1

---
Fill blank: measured TGI of the compound CC(C)c1ccc2c(c1)CCC1C(C)(CN)CCCC21C (stereo not given) is ____. 3.34

====

test system: SF-539 CNS; test: NCI tumour cell line growth inhibition, 48 h
Parameter measured: TGI

Consider the following illustrative entries.
GET /values?readout=TGI&item= N#CC(NNC(=O)Cc1ccccc1)c1ccc(O)cc1 (stereo unspecified) > 100 µM

Would you kindly repeat that for C/C(CC(O)(C(F)(F)Cl)C(F)(F)Cl)=N\Nc1ccccc1 ? > 100 µM

One more compound: Cc1ccc([N+](=O)[O-])cc1S(=O)(=O)Nc1ccc(C(=O)/C=C/c2ccccc2)cc1 > 100 µM

Next up: COc1ccc(/C=C2\C(=O)Nc3ccccc32)cc1OC > 100 µM

For c1ccc(C2C3=C(c4ccccc4CC3)N3c4cc5nc6ccccc6nc5cc4NC34CCCCC24)cc1 (stereo unspecified) then? > 10 µM

Likewise for Cc1ccc(NCCO)cc1 ? > 100 µM

Please give the result for CNC(=S)N/N=C(\C)c1cc(OC)c(OC)cc1O too. > 100 µM

Record: Cc1cc(C)c2c(=O)cc(-c3ccc(F)cc3)[nH]c2n1 > 100 µM

Another compound to check: Cc1cc2c(=O)cc(-c3ccc(Cl)cc3Cl)oc2c(C(=O)O)c1C > 100 µM

Entry C=CC(C)(C)c1c(OC)oc2ccc(OC)c(C)c2c1=O please > 100 µM

Others:
Value lookup for TGI; key = N#CCC(=O)N/N=C(/C(=O)Nc1ccccc1)C1C(=O)N(c2ccccc2)N=C1N (stereo unspecified) > 100 µM

Now the compound CO[C@@H]1[C@H](N(C)C(=O)c2ccccc2)C[C@@H]2O[C@]1(C)n1c3ccccc3c3c4c(c5c6ccccc6n2c5c31)C(=O)NC4=O 59.8 µM

Please give the result for O=C(O)[C@@]1(Cc2ccc(O)cc2)C[C@@H]2Cc3ccccc3N2N1 too. > 100 µM

Also check O=C(NCCNc1nccc(-c2c(-c3ccc(F)cc3)nc3sccn23)n1)Nc1cccc(C(F)(F)F)c1 26.7 µM

Same read-out for CCCCCCCCOP(=O)(O)OP(=O)(O)OCC1OC(n2ccc(N)nc2=O)C(O)C1O (stereo unspecified) ? > 100 µM

Proceed to O=C(NCCCNc1cc(-c2cn(-c3ccccc3)nc2-c2cccc(O)c2)ccn1)c1ccc(F)cc1 5.41 µM

Would you mind doing Cc1ccc([I+]c2ccc(C)cc2)cc1 as well? > 100 µM

Also, CC(Cc1ccc(O)cn1)(NC(=O)c1ccccc1)C(=O)O (stereo unspecified) please. > 100 µM

Consider next the compound COc1cc(/C=C(\C)c2ccc3c(c2)OCO3)cc(OC)c1OC in the same way. 58.7 µM

Now give it for Cc1cc(C)c(S(=O)(=O)N(CCCCCCN)OCCCON(CCCCCCN)S(=O)(=O)c2c(C)cc(C)cc2C)c(C)c1 too. 3.98 µM

Can you handle CCOc1ccc(-n2c(=O)c3nn4c(=O)n(-c5ccc(OCC)cc5)c(=O)c4nn3c2=O)cc1 next? > 100 µM

====

tested on: MDA-MB-231 breast; test: NCI tumour cell line growth inhibition, 48 h; in the data active = GI50 below about 0.43 µM; inactive = the rest
Give one outcome, nothing more. List: t for active, f for inactive

Field: example entries. Status: answers known.
Hey, what did the test say about COc1ncnn2ccc(-c3cnc4nc(C)n(Cc5nnc(C(C)F)o5)c4c3)c12 (configuration not stated) ? t

Next compound: CCN1C2=C(SC(=S)C1=C1SC(C(=O)c3ccccc3)=C(C(=O)c3ccccc3)S1)SC(=Nc1ccccc1)C2=O f

And the next one, CCOC(=O)Cc1csc(Nc2nc(O)c(C3=c4ccccc4=NC3=O)s2)n1 ? f

Now the same for COc1ccc(/C=C/C(=O)c2ccc(B(O)O)cc2)cc1O f

Let us now turn to COC(=O)Nc1nc2ccc(C(=O)C3CC3)cc2[nH]1 f

What do we get for ClCCN(CCCl)c1ccc(OCc2ccccc2)cc1 ? f

Continuing:
Just curious, what result did Cc1cccc2c1NC(=O)[C@@H](NC(=O)[C@H](CCC(F)(F)F)[C@H](CCC(F)(F)F)C(N)=O)N=C2c1cccc(F)c1 get here? f

====

test system: NCI-H460 lung
API: response.call in active, inactive

Identify the outcome logged in this assay for the compound shown: Fc1ccc(-c2nn3c(COc4ccccc4Cl)nnc3s2)cc1Oc1ccccc1 inactive

What do we get for N#C/C(=C\c1ccc([N+](=O)[O-])cc1)n1nnc2cc(F)c(F)cc21 ? inactive

Moving on to the next compound: O=C(CSc1nc2ccc([N+](=O)[O-])cc2[nH]1)Nc1ccc([N+](=O)[O-])cc1 inactive

Again, but for O=C(NCCNc1nccc(-c2c(-c3ccc(F)cc3)nc3sccn23)n1)Nc1cccc(C(F)(F)F)c1 inactive

Kindly review the next compound as well.
Assay result, entry COc1ccc2c(c1)OC(N)=C(C#N)C2c1ccc(F)c(F)c1 (stereo not given) — outcome? active

====

// reported TGI for each item listed
tested on: SK-MEL-5 melanoma; assay: NCI tumour cell line growth inhibition, 48 h
# output: bare number, implied unit µM

Requested read-out: TGI. Entry: Cc1ccc2[nH]c3c(C)c4cc[n+](C)cc4c(C)c3c2c1 8.54

Same again, this time with O=C1NC(=N[C@@H]2C[C@H]2c2ccccc2)S/C1=C\c1ccc2ncccc2c1 9.2

// repeat for COc1cc2c3c(n(CCCNC(C)(C)CO)c(=O)c2cc1OC)-c1cc2c(cc1C3=O)OCO2 and report 13.3

Next, consider the following compound.
// returns reported TGI for input Brc1ccc2[nH]cc([C@@H]3CN[C@@H](c4c[nH]c5ccc(Br)cc45)CN3)c2c1 20.8

The values you see were collected from PubChem BioAssay (NCI).
